src = patent US11844843

- measured on: T1, recombinant cynomolgus monkey (Macaca fascicularis) TfR1 (cynomolgus monkey (Macaca fascicularis), UniProt Q5RDH6 87-760 (Pongo abelii entry), limits assumed)
- T1 construct: Recombinant protein; also called cTfR1; cyTfR1
- T1 chain: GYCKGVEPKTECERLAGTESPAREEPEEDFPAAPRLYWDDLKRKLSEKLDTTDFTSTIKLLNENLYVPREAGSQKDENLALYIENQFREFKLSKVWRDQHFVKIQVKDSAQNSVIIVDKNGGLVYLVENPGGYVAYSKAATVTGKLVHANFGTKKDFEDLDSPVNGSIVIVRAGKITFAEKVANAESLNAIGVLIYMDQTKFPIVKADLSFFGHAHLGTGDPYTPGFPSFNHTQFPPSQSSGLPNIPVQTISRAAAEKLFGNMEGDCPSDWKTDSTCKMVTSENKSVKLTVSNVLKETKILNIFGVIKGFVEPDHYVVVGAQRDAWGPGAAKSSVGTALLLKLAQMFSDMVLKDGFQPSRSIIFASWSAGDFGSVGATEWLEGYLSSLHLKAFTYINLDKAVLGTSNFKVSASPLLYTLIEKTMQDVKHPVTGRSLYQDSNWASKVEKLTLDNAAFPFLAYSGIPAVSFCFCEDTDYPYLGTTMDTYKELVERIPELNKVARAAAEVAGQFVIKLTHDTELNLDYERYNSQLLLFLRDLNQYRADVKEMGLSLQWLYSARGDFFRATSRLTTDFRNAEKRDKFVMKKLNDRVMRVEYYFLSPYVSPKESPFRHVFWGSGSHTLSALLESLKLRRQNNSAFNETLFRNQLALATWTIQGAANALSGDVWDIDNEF
- experiment description: Table 14, unconjugated Fab, d9 (after 9 days at 40 C); method not named
Label Met when Binding affinity is at or above 20 nM; anything below gets Not met.

- binder: "humanized anti-TfR Fab 5H12 VH5 (C33D)/Vκ4 (Fab, V domains shown, also called 5H12 (VH5-C33D/Vk4)) VH: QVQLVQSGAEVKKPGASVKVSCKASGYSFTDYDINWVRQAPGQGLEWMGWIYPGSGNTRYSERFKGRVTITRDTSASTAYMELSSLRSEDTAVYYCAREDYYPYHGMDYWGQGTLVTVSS VL: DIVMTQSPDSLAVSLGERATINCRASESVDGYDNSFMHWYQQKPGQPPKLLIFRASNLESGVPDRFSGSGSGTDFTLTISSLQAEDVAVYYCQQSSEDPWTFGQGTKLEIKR"
  classification: "Not met"
- binder: "humanized anti-TfR Fab 3M12 VH3/Vκ3 (Fab, V domains shown, also called 3M12 (VH3/Vk3)) VH: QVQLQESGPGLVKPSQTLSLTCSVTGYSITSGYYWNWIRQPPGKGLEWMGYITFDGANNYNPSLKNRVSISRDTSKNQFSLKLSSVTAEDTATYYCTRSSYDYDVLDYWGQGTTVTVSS VL: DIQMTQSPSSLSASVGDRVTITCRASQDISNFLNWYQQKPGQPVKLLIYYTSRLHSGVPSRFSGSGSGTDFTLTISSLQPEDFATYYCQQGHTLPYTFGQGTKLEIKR"
  classification: "Not met"
- binder: "humanized anti-TfR Fab 3A4 VH3 (N54S)/Vκ4 (Fab, V domains shown, also called 3A4 (VH3-N54S/Vk4)) VH: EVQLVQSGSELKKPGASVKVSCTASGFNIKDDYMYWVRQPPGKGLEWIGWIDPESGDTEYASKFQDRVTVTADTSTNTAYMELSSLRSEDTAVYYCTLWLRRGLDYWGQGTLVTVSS VL: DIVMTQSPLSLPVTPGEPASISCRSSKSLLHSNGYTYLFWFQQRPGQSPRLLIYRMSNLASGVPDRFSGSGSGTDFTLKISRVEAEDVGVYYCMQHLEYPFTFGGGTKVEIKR"
  classification: "Met"

Q: hey, is Binding affinity for this one >= 20 nM? humanized anti-TfR Fab 3M12 VH4/Vκ2 (Fab, V domains shown, also called 3M12 (VH4/Vk2)) VH: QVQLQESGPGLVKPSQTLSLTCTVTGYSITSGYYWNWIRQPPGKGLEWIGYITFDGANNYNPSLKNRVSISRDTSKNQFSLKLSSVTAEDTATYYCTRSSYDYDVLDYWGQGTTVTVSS VL: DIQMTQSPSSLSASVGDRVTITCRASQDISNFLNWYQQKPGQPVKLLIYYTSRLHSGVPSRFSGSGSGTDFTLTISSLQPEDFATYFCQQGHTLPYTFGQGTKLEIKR
A: Not met

Q: I'd appreciate it if you could say whether humanized anti-TfR Fab 3M12 VH4/Vκ3 (Fab, V domains shown, also called 3M12 (VH4/Vk3); anti-TfR Fab 3M12 VH4/Vk3) VH: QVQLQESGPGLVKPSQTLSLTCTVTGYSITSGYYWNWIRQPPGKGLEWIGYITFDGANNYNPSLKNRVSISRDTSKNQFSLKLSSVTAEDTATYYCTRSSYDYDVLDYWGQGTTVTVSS VL: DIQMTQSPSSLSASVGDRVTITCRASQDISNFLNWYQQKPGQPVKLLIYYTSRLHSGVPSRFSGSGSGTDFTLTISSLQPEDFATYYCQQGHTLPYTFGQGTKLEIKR has Binding affinity at least equal to 20 nM.
A: Not met
